In this section we review reported Potency values for a set of compounds.
- measurementDescription: qHTS for Inhibitors of binding or entry into cells for Marburg Virus; also: potency is read from the fitted curve at half-maximal effect
- experimentalConditions: Marburg virus pseudotype entry/binding inhibition, cell-based; series mostly up to 49.2 µM
About 1,200 (6.7%) of roughly 18,000 compounds were called active. Inconclusive results (about 16%) are left out. Shown is part of a subset that was picked to be rich in actives.

CCCN(C/C=C\I)[C@@H]1CCc2cccc(O)c2C1	25.1 µM (active)

Just so you know, measured Potency for `C[C@@]12CC[C@H]3[C@@H](CC[C@]4(O)C[C@H](O)CC[C@@]34C=O)[C@]1(O)CC[C@@H]2C1=CC(=O)OC1` came out at 1 µM (active)

Just so you know, measured Potency for `CN1CCN2c3ccccc3Cc3ccccc3[C@@H]2C1` came out at 15.8 µM (active)

Just so you know, measured Potency for `CC(=O)[O][Sn]([c]1ccccc1)([c]1ccccc1)[c]1ccccc1` came out at 1 µM (active)

Just so you know, measured Potency for `CC(C)=CCC[C@]1(C)[C@@H](CC=C(C)C)C[C@@]2(CC=C(C)C)C(=O)[C@]1(C(=O)C(C)C)C(=O)C(CC=C(C)C)=C2O` came out at 15.8 µM (active)

Just so you know, measured Potency for `COc1ccc2[nH]cc(CCNCc3ccc(Br)cc3)c2c1` came out at 15.8 µM (active)

Just so you know, measured Potency for `O=c1c(CN2CCOc3ccc(CN4CCC(Oc5cccnc5)CC4)cc3C2)coc2ccccc12` came out at 11.2 µM (active)

----------
- measurementDescription: qHTS for Inhibitors of binding or entry into cells for Marburg Virus; as to activity change, negative = inhibition: % is scaled to controls: 0 for no effect and ±100 for the full control effect
- experimentalConditions: Marburg virus pseudotype entry/binding inhibition, cell-based; series mostly up to 49.2 µM
About 1,200 (6.7%) of roughly 18,000 compounds were called active. About 16% were inconclusive and are not listed. Shown is part of a subset that was picked to be rich in actives.
measuredAttribute: activity change, negative = inhibition

COCCN1C(=S)NC(c2cccc(F)c2)C(C(=O)OC)=C1C (stereo unspecified)	20.9% [at 8.59 µM] (inactive)
COC(=O)C/C=C/[C@@H](C)[C@H](NC(=O)OCC(Cl)(Cl)Cl)c1ccccc1	inactive
C[C@H](CCC(=O)NCC(=O)O)[C@H]1CC[C@H]2[C@H]3[C@@H](C[C@@H](O)[C@]12C)[C@]1(C)CC[C@H](O)C[C@@H]1C[C@@H]3O	inactive
CC[C@@]12C=C(/C=C/c3ccccc3)[C@](CC)(C1)[C@H](c1ccccc1)CC2=O	inactive
CC[C@H](C)[C@H](NC(=O)[C@H](Cc1ccc(O)cc1)NC(=O)[C@@H](NC(=O)[C@H](CCCN=C(N)N)NC(=O)[C@@H](N)CC(=O)O)C(C)C)C(=O)N[C@@H](Cc1cnc[nH]1)C(=O)N1CCC[C@H]1C(=O)N[C@@H](Cc1ccccc1)C(=O)O	inactive

Just so you know, measured activity change, negative = inhibition for `N#Cc1ccc2c(c1)C[C@]1(CCCCN3C(=O)c4ccccc4C3=O)OC3=C(C(=O)OC4(CCCCC4)C3)[C@H]2O1` came out at 9.87% [at 8.59 µM] (inactive)

Just so you know, measured activity change, negative = inhibition for `CC(C)[C@H]1CC[C@@H](C)C[C@H]1O` came out at inactive

----------
- measurementDescription: qHTS for Inhibitors of binding or entry into cells for Marburg Virus; as to activity change, negative = inhibition: % is scaled to controls: 0 for no effect and ±100 for the full control effect
- experimentalConditions: Marburg virus pseudotype entry/binding inhibition, cell-based; series mostly up to 49.2 µM
Screen size: about 18,000 compounds; about 1,200 (6.7%) were called active. Roughly 16% stayed inconclusive and do not appear here. The sample as a whole holds a higher share of actives than the screen did.
measuredAttribute: activity change, negative = inhibition

Worked examples, 5 molecules total:
CCOC(=O)CN1C(=O)NC(CCc2ccccc2)C(C(C)=O)=C1C (stereo unspecified)	3.64% [at 8.59 µM] (inactive)
Cc1ccc(S(=O)(=O)N2CCC(=O)N([C@H](COCc3ccccc3)Cc3ccccc3)CC2)cc1	inactive
CC(C)(C)OC(=O)Nc1ccc(OCc2cn(CC(=O)c3ccc(O)cc3)nn2)cc1	inactive
CC/C=C\C/C=C\C/C=C\C/C=C\C/C=C\C/C=C\CCC(=O)NC(C)C(=O)O (stereo unspecified)	inactive
NNc1nnc(NN)c2ccccc12	inactive

Just so you know, measured activity change, negative = inhibition for `CCOC(=O)CCN1C(=O)[C@@H]2[C@H]3[C@H](O)[C@H](O)CC(=NOCC(C)C)[C@@H]3CC[C@H]2C1=O` came out at -10.9% [at 8.59 µM] (inactive)

Just so you know, measured activity change, negative = inhibition for `COc1ccc2c(c1)O[C@@H](c1ccc3c(c1)OCO3)[C@H](OC(=O)NCCc1ccc(OC)c(OC)c1)C2=O` came out at inactive

Just so you know, measured activity change, negative = inhibition for `Nc1ccc2c3c(cccc13)C(=O)NC2=O` came out at inactive

Just so you know, measured activity change, negative = inhibition for `COCOc1cc(OC)ccc1C(=O)/C=C/c1ccc([N+](=O)[O-])cc1` came out at inactive

Just so you know, measured activity change, negative = inhibition for `COC(=O)Nc1nc2ccc(Sc3ccccc3)cc2[nH]1` came out at inactive

Just so you know, measured activity change, negative = inhibition for `CCCCCC(=O)N1C[C@@H](O)[C@H](n2cc(C3CC3)nn2)C[C@H]1c1ccc(OC)cc1` came out at inactive

Just so you know, measured activity change, negative = inhibition for `CCCCCCCC[C@@H](O)/C=C/C=C/C=C\[C@@H](O)CCCC(=O)O` came out at inactive

Just so you know, measured activity change, negative = inhibition for `CCCCC/C=C\C/C=C\CCCCCCCCCC(N)=O` came out at inactive

Just so you know, measured activity change, negative = inhibition for CCOC(=O)C1C/C(=C\C(C)=O)c2cccc(C(F)(F)F)c2O1 (stereo unspecified) came out at inactive

Just so you know, measured activity change, negative = inhibition for Brc1ccc(C2=NCCC(c3ccccc3)O2)cc1 (stereo unspecified) came out at inactive

----------
- measurementDescription: qHTS for Inhibitors of binding or entry into cells for Marburg Virus; as to activity change, negative = inhibition: % is scaled to controls: 0 for no effect and ±100 for the full control effect
- experimentalConditions: Marburg virus pseudotype entry/binding inhibition, cell-based; series mostly up to 49.2 µM
In all, about 18,000 compounds went through this assay and about 1,200 (6.7%) were called active. Inconclusive results (about 16%) are left out. This is one part of a sample in which actives are shown more often than they occur.
measuredAttribute: activity change, negative = inhibition

CC1=C(/C=C/C(C)=C/C=C/C(C)=C/C=C/C=C(C)/C=C/C=C(C)/C=C/C(=O)[C@]2(C)C[C@@H](O)CC2(C)C)C(C)(C)C[C@H](O)C1	inactive
N#Cc1cccc(CS(=O)(=O)c2nnnn2-c2cc(C(F)(F)F)cc(C(F)(F)F)c2)c1	inactive
COC(=O)C1=C(C)N(Cc2ccccc2)C(=NCCc2ccc([N+](=O)[O-])cc2)NC1c1cccc(F)c1 (stereo not given)	9.24% [at 8.59 µM] (inactive)
C=CCC(C)(O)c1ccco1 (stereo not given)	inactive
COc1ccc(-c2nc3c(c4c2C[C@H](c2ccccc2)OC4)CN(C(=O)c2ccco2)CC3)c(C)c1	13.2% [at 8.59 µM] (inactive)
Cc1cc(N(C)C)nc(Cl)n1	inactive

Just so you know, measured activity change, negative = inhibition for `CCC(C)(C)N=C(NC#N)Nc1cccnc1` came out at inactive

Just so you know, measured activity change, negative = inhibition for `CCOC(=O)N1CCN(Cc2ccc3c(c2)CN(C(=O)c2cccc(-n4cccn4)c2)CCO3)CC1` came out at inactive

Just so you know, measured activity change, negative = inhibition for `Cc1cc2oc(=O)cc(CN(C)Cc3ccccc3)c2cc1Cl` came out at inactive

Just so you know, measured activity change, negative = inhibition for `CCCCCCN1C[C@@H](O)[C@H](n2cc(C3CC3)nn2)C[C@H]1c1ccccc1` came out at inactive

Just so you know, measured activity change, negative = inhibition for COC(=O)CCCC1=CC2=C(c3ccccc3)C(=O)C(C)(OC(=O)C3CCCC3)C(=O)C2=CN1c1ccc(OC)cc1 (stereo not given) came out at -5.26% [at 8.59 µM] (inactive)

Just so you know, measured activity change, negative = inhibition for `O=C(C(=O)N1CCOc2ccc(CN3CCN(Cc4ccccn4)CC3)cc2C1)c1ccccc1` came out at inactive

Just so you know, measured activity change, negative = inhibition for `CC(C)c1cc(C(=O)N2CCOc3ccc(CN4CCC(Oc5cccnc5)CC4)cc3C2)n[nH]1` came out at inactive

Just so you know, measured activity change, negative = inhibition for `O=C1OCCN1C(=O)[C@H]1[C@H](c2ccccc2)C(c2ccc(F)cc2)=NN1c1ccccc1` came out at inactive

Just so you know, measured activity change, negative = inhibition for COc1ccc([C@@H](NC(=O)C(F)(F)F)C2CCCC=C2c2ccccc2)cc1OC (stereo not given in full) came out at 2.89% [at 8.59 µM] (inactive)

Just so you know, measured activity change, negative = inhibition for `CCOC(=O)N1CCC(N2CCOc3ccc(CN4CCC(O)(c5cccnc5)CC4)cc3C2)CC1` came out at inactive

Just so you know, measured activity change, negative = inhibition for CC(C)=CCCC(C)=CCN1C(=O)[C@]2(O[C@H](C)CC3=CCCC32)c2c(Br)cccc21 (stereo not given in full) came out at 10.2% [at 8.59 µM] (inactive)

Just so you know, measured activity change, negative = inhibition for C=C(C)C1CC=C(C)C(O)C1 (stereo not given) came out at inactive

Just so you know, measured activity change, negative = inhibition for `COc1ccc(-c2nc3c(c4c2C[C@H](c2ccccc2)OC4)CN(C(=O)c2cccnc2)CC3)c(C)c1` came out at 29.8% [at 8.59 µM] (inactive)

Just so you know, measured activity change, negative = inhibition for COc1cc2c(c(OC)c1OC)CC(C)=C(C)CC2NC(=O)C(F)(F)F (stereo not given) came out at -9.07% [at 8.59 µM] (inactive)
